# TEST SUMMARY: Nuclear factor erythroid 2-related factor 2/antioxidant responsive element (Nrf2/ARE) small molecule agonists: qHTS cell viability counter screen in human keratinocytes (AID 1919968); also: % is scaled to controls: 0 for no effect and ±100 for the full control effect; nearly all actives have a fitted effect of over 55% in size
# APPLIED CONDITIONS: KeratinoSens HaCaT ARE cells viability, CellTiter-Fluor, 24 h; series mostly up to 92.4 µM
Results filed as inconclusive are left out. Active and inactive are the calls of the source. Calls follow the shape of the dose curve; as a rule, active = well fitted cell-killing curve with a large enough effect in the repeat runs; inconclusive = weak or mixed curves, or effect the other way; inactive = flat fitted curve, though single readings scatter.
OUTCOME MEASURE: outcome

Cc1[nH]cnc1CN1CCc2c(c3ccccc3n2C)C1=O inactive
O=C(Nc1ccc([N+](=O)[O-])cc1)Nc1ccc([N+](=O)[O-])cc1 inactive
CC(C)Oc1ccccc1O inactive
CC(C)(C)C(=O)Oc1ccc(S(=O)(=O)Nc2ccccc2C(=O)NCC(=O)O)cc1 inactive

====

# TARGET OR TEST SYSTEM: Muscarinic acetylcholine receptor M1 (Homo sapiens)
# TEST SUMMARY: Cholinergic receptor muscarinic 1 (CHRM1) small molecule antagonists, cell-based qHTS assay (AID 1963588); also: nearly all actives have a fitted effect of over 40% in size
# APPLIED CONDITIONS: CHRM1-CHO antagonist mode, calcium flux fluorescence; series mostly up to 61.5 µM
Inconclusive results are not listed. Calls of active or inactive are those of the source. Calls come from the whole dose curve.
One label from this list, please: 1.0 (active), 0.0 (inactive)

MOLECULE	CLASS LABEL
O=C(CCC1CCN(Cc2ccccc2)CC1)c1ccc2c(c1)NCCCC2	1.0
CC(C)Oc1ccccc1O	0.0
O=C(CO)[C@@H](O)[C@H](O)[C@@H](O)CO	0.0
CC(C)(C#N)Nc1nc(Cl)nc(NC2CC2)n1	0.0
O=[N+]([O-])c1cccc(I)c1	0.0
O=C(COCCOCCOCC(=O)Nc1c(I)cc(I)c(C(=O)O)c1I)Nc1c(I)cc(I)c(C(=O)O)c1I	0.0
CN(C)C/C=C(/c1ccc(Br)cc1)c1cccnc1	0.0
ICCc1ccccc1	0.0
COC(=O)/C=C\C(=O)O	0.0
Cc1c(Cn2ccnc2)c2ccccc2n1CCC(=O)O	0.0

Task item: Name the outcome recorded for CC(=O)CC(=O)Nc1ccc(C)cc1C in the assay.
Reply: 0.0

====

Catalogue of Potency readings, one per entry.
# TARGET OR TEST SYSTEM: D(2) dopamine receptor (Homo sapiens) (UniProt P14416)
# Sequence (P14416 whole entry, looked up): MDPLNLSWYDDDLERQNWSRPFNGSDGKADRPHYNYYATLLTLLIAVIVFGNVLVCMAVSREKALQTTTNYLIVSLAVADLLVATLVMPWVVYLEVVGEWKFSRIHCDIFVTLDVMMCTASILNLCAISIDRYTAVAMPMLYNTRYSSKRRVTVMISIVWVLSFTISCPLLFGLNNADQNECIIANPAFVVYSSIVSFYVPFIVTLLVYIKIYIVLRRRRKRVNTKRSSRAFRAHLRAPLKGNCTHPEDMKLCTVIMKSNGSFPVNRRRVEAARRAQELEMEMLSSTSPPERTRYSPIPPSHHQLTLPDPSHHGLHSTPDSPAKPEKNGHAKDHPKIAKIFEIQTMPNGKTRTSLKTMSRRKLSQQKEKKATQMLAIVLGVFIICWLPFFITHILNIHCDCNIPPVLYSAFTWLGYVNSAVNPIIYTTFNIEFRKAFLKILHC
# TEST SUMMARY: Dopamine D2 receptor (DRD2) small molecule antagonists, cell-based qHTS assay (AID 1963595); also: potency is read from the fitted curve at half-maximal effect
# APPLIED CONDITIONS: HEK293-DRD2 cAMP HTRF antagonist mode; series mostly up to 92.4 µM
Inconclusive results are not listed. The source made the active and inactive calls. Calls follow the shape of the dose curve; as a rule, active = well fitted inhibition curve with a large enough effect in the signal ratio in the repeat runs, with a control signal flat; inconclusive = weak or mixed curves, or effect the other way; inactive = flat fitted curve, though single readings scatter; the % refers to the signal ratio.

Reference set (2 entries):
COMPOUND	EXPERIMENTAL RESULT
O=C(NC1CCN(CCc2c[nH]c3ccccc23)CC1)c1ccccc1	596 nM (active)
COc1cc(N)c(Cl)cc1C(=O)NC1CCN(CCCOc2ccc(F)cc2)CC1OC (stereo not drawn)	11900 nM (active)

Below: the item to evaluate.
Task item: Field: Potency (D(2) dopamine receptor (Homo sapiens) (UniProt P14416)). Entry: O=C1[C@H]2CCCC[C@H]2C(=O)N1CCCCN1CCN(c2nsc3ccccc23)CC1
Reply: 2.7 nM (active)

====

# TARGET OR TEST SYSTEM: Muscarinic acetylcholine receptor M1 (Homo sapiens) (UniProt P11229)
# Sequence (P11229 whole entry, looked up): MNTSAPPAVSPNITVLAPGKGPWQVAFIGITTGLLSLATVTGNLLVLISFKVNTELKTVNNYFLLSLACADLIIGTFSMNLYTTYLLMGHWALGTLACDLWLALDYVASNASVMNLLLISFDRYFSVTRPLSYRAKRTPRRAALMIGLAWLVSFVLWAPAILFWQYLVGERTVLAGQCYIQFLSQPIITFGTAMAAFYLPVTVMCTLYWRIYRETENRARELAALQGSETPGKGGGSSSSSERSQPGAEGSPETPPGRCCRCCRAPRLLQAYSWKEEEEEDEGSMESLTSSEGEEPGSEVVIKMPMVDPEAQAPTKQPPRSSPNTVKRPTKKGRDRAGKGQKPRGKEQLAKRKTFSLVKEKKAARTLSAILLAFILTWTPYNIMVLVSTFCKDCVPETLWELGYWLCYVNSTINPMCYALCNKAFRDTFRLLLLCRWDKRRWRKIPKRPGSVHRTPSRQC
# TEST SUMMARY: Cholinergic receptor muscarinic 1 (CHRM1) small molecule antagonists, cell-based qHTS assay (AID 1963588); also: nearly all actives have a fitted effect of over 40% in size
# APPLIED CONDITIONS: CHRM1-CHO antagonist mode, calcium flux fluorescence; series mostly up to 61.5 µM
Results filed as inconclusive are left out. The source made the active and inactive calls. Calls follow the shape of the full dose curve.
Output constraint: value belongs to 1 (yes) for active, 0 (no) for inactive

COMPOUND	CLASS LABEL
C/C=C(\C)C(=O)OCC/C=C\CC	0 (no)
Clc1nc(C(Cl)(Cl)Cl)c(Cl)c(Cl)c1Cl	0 (no)
CCN(CC)c1ccc2c(-c3ccc(S(=O)(=O)O)cc3S(=O)(=O)[O-])c3ccc(=[N+](CC)CC)cc-3oc2c1	0 (no)
CCCCCC[C@@H](CCC)C(=O)O	0 (no)

Task item: Could you check what this test reported for CCCCCCC(O)CCOC(C)=O (stereo not given) ?
Reply: 0 (no)

Task item: Outcome? CC(=O)NCCCCCC(=O)O
Reply: 0 (no)

Task item: For O=C(O)Cc1csc(-c2ccc(Cl)cc2)n1 , which call appears in the assay record?
Reply: 0 (no)

Task item: Fill in: this test's call for CCCCCCCC(C)=O is ___
Reply: 0 (no)

Task item: Check the results log: what was the call for Cc1c(F)cc2c(=O)c(C(=O)O)cn3c2c1CCC3C (stereo not given) ?
Reply: 0 (no)

Task item: What did this assay record as the result for NCc1ccco1 ?
Reply: 0 (no)

Task item: Recorded test outcome, item CC(C)(O)C(=O)c1ccccc1
Reply: 0 (no)
